Below, each entry is listed alongside its reported GI50.
Tested on: OVCAR-4 ovarian
assay-comment: NCI tumour cell line growth inhibition, 48 h

{"columns": ["molecule", "GI50"],
 "data": [
  ["COc1ccc(/C=C(\\C#N)n2nnc3c(F)cccc32)cc1", "> 28.2 µM"],
  ["O=C(CCCCCCN1CC(=O)N2[C@@H](c3ccc(Cl)c(Cl)c3)c3[nH]c4ccccc4c3C[C@H]2C1=O)NO", "4.71 µM"],
  ["Oc1c(I)cc(I)c2cccnc12", "3.94 µM"],
  ["NS(=O)(=O)c1ccc(-c2cc3ccncc3cc2OCc2ccccc2)cc1", "> 19.6 µM"],
  ["COC(=O)CCCCC(=O)c1c(C)[nH]c(/C=C2\\N=C(c3ccc[nH]3)C=C2OC)c1C", "1.14 µM"],
  ["CC1OC(OC2C(O)CC(OC3C(O)CC(OC4CCC5(C)C(CCC6C5CC(O)C5(C)C(C7=CC(=O)OC7)CCC65O)C4)OC3C)OC2C)CC(O)C1O (stereo not drawn)", "0.0347 µM"],
  ["Cc1cccc2c3c(sc12)C(c1ccc(Cl)cc1)C(C#N)=C(N)O3 (stereo not drawn)", "2.08 µM"],
  ["Cn1cc(C2=C(c3cccc(OC[C@@H](O)CO)c3)C(=O)NC2=O)c2ccccc21", "> 16.4 µM"]
]}

###

This section presents compounds with their documented TGI values.
Test system: KM12 colon
assay-comment: NCI tumour cell line growth inhibition, 48 h

{"columns": ["compound", "TGI"],
 "data": [
  ["c1cnc2c(c1)ccc1cccnc12", "> 100 µM"],
  ["O=[N+]([O-])c1ccc(N2CCOCC2)c2c1no[n+]2[O-]", "2.48 µM"],
  ["COc1ccc(CCC2c3cc(OC)c(OC)cc3CCN2C)cc1OC (stereo not given)", "> 100 µM"],
  ["Cc1nc(C(=O)O)c2ccccc2n1", "> 100 µM"],
  ["C=CNC(=O)NC(=O)CSc1nnc(-c2ccccc2NC(=O)C(F)(F)F)c(=O)[nH]1", "> 100 µM"],
  ["NC1CC(=O)c2c1sc(Cl)c2Cl (stereo not given)", "> 100 µM"],
  ["C[N+](C)(C)c1ncnc2c1ncn2C1CC(O)C(CO)O1 (stereo not given)", "> 100 µM"],
  ["OCCNC1c2cc(Cl)ccc2-c2c(Cl)cc(Cl)cc21 (stereo not given)", "> 100 µM"],
  ["CCOC(=O)/C=C/CCO[Si](C)(C)C(C)(C)C", "> 100 µM"],
  ["c1ccc2oc(-c3ccc(-c4nc5ccccc5o4)c4c3CC4)nc2c1", "> 100 µM"],
  ["Nc1c([N+](=O)[O-])nc(Cl)c2nncn12", "> 100 µM"],
  ["Nc1[nH]c(=O)nc2c1cnn2C1CCCCO1 (stereo not given)", "> 100 µM"],
  ["O=C(O)Cc1cccnc1", "> 100 µM"],
  ["O=C(c1nc2ccccc2[nH]c1=O)C(O)c1ccccc1 (stereo not given)", "> 100 µM"],
  ["NC(=O)C(=CNC(=S)Nc1ccccc1)C(N)=O", "> 100 µM"],
  ["CN1C(c2ccccc2)CC(=O)C(N)C1c1ccccc1 (stereo not given)", "57.5 µM"],
  ["Cc1ccccc1NC(=O)C(=O)C(C#N)c1ccccc1C (stereo not given)", "> 100 µM"],
  ["COc1cc(/C=C/C(=O)c2cccc(-n3cc(-c4ccc(Cl)cc4)[nH]c3=O)c2)cc(OC)c1OC", "18.6 µM"],
  ["Nc1ccc2c(c1)nc1n2C(c2c(F)cccc2F)SC1 (stereo not given)", "> 100 µM"],
  ["O=C1Nc2ccccc2N=CC1NC(=O)C(c1ccccc1)c1ccccc1 (stereo not given)", "> 100 µM"],
  ["C=C1CCC2[C@@H](CCC3[C@]2(C)CCC[C@]3(C)C(=O)OC)C1CC=O (stereo not given in full)", "36.6 µM"],
  ["COC(=O)[C@@]1(C(C)CC(=O)O)CCCCC1=O (stereo not given in full)", "> 100 µM"],
  ["CC1=NN(c2nc(N)nc(/C(C#N)=C\\c3csc([N+](=O)[O-])c3)n2)C(C)(C)C1", "> 100 µM"],
  ["CCCC1CCC(=C2C(=O)CCC2=O)O1 (stereo not given)", "> 100 µM"],
  ["Nc1nc(O)c2ncn([C@H]3CC[C@@H](CO)O3)c2n1", "> 100 µM"]
]}

###

The following molecules are listed with their measured TGI values.
Tested on: HCT-15 colon
assay-comment: NCI tumour cell line growth inhibition, 48 h

{"columns": ["molecule", "prefix-operator", "TGI / µM"],
 "data": [
  ["c1cc2nnc1SCCCSc1ccc(nn1)SCCCS2", ">", 100],
  ["C[CH2][Sn]([CH2]C)([O]C(=O)c1ccccc1OC)[O][Sn]([CH2]C)([CH2]C)[O]C(=O)c1ccccc1OC", ">", 100],
  ["CCOC(=O)c1sc2nc(SC)nc3c2c1NCN3c1ccc2c(c1)OCO2", ">", 100],
  ["COc1ccc(/C=C(\\C#N)n2nnc3c(F)cccc32)cc1", ">", 100],
  ["O=[N+]([O-])/C(C(Cl)=C(Cl)Cl)=C(/Cl)SCc1ccccc1", "=", 19.2],
  ["COC(=O)c1cc2c(cc1Cl)SC1=NN(C)C(N(C)C)N1S2(=O)=O (stereo not given)", ">", 100],
  ["Cc1cc(N(CCC#N)CCC#N)ccc1/C(N=Nc1cccc(Cl)c1)=N/NC(=O)c1cc(Cl)ccc1O", "=", 24.4],
  ["COC(=O)[C@@]1(C(C)CC(=O)O)CCCCC1=O (stereo not given in full)", ">", 100],
  ["O=S(=O)(/C=C/C(=C/c1ccccc1)S(=O)(=O)c1ccccc1)c1ccccc1", "=", 3.3],
  ["C[C@]12CC[C@@H]3c4cc(OC(F)F)c(OS(N)(=O)=O)cc4CC[C@H]3[C@@H]1CC[C@@H]2O", "=", 13.6]
]}

###

The reader will find reported GI50 values listed item by item below.
Tested on: CCRF-CEM leukemia
assay-comment: NCI tumour cell line growth inhibition, 48 h
Where a SMILES comes first, the peptide text is derived from it. The star is where a group is joined. Palmitoyl = CCCCCCCCCCCCCCCC(=O)*

{"columns": ["compound", "subject-of-test", "GI50"],
 "data": [
  ["CCCCCCCCCCCCCCCC(=O)N1CCCC1C(=O)NCC(=O)NC(Cc1ccccc1)C(=O)NC(C)C(=O)NC(CO)C(=O)NC(Cc1ccc(O)cc1)C(=O)NC(CCCCN)C(=O)NC(CC(C)C)C(=O)NC(CCCN=C(N)N)C(=O)N1CCCC1C(=O)NCC(N)=O (configuration not stated) (Palmitoyl-PGFASYKLRPG-NH2; configuration not given here)", "CCRF-CEM leukemia", "16.5 µM"],
  ["C/C(=N/N=C(\\[O-])c1ccncc1)C(F)(F)F.C/C(=N\\N=C(/[O-])c1ccncc1)C(F)(F)F.[Ni+2]", "CCRF-CEM leukemia", "> 1 µM"]
]}

###

System: MALME-3M melanoma
assay-comment: NCI tumour cell line growth inhibition, 48 h
Listing: TGI of selected molecules

{"columns": ["molecule", "prefix-operator", "TGI [µM]"],
 "data": [
  ["Cc1cc(C)nc(NS(=O)(=O)c2ccc(Nc3c4ccccc4nc4c(C(=O)Nc5ccc(S(=O)(=O)N=C(N)N)cc5)cccc34)cc2)n1", ">", 100],
  ["Cc1ccc(-c2nc([P+](c3ccccc3)(c3ccccc3)c3ccccc3)c(S(=O)(=O)c3ccc(C)cc3)o2)cc1", "=", 2.19],
  ["CC(N)Cc1ccc(Cl)c(Cl)c1 (centres undefined)", "=", 35.5],
  ["NC(=O)c1csc(C2OC(COP(=O)(O)CP(=O)(O)OCC3OC(n4cnc5c(N)ncnc54)C(O)C3O)C(O)C2O)n1 (centres undefined)", ">", 100],
  ["COc1ccc(/C=N/n2c(C)n[nH]c2=O)c(OC)c1", ">", 100],
  ["O=[N+]([O-])c1ccc(-c2nc3ccc(Cl)cc3[nH]2)cc1", ">", 100],
  ["Nc1nc(Nc2ccccc2SSc2ccccc2Nc2nc(N)nc(C(Cl)(Cl)Cl)n2)nc(C(Cl)(Cl)Cl)n1", "=", 18.6],
  ["Cc1cc(N(CCC#N)CCC#N)ccc1/C(N=Nc1cccc(Cl)c1)=N/NC(=O)c1cc(Cl)ccc1O", "=", 28.1],
  ["O=C(c1nc2ccccc2[nH]c1=O)C(O)c1ccccc1 (centres undefined)", ">", 100]
]}

###

Tested on: A498 renal
assay-comment: NCI tumour cell line growth inhibition, 48 h
Please note: fulfilled applies when TGI is 4 µM or greater, and not fulfilled applies otherwise.

{"columns": ["molecule", "label-class"],
 "data": [
  ["COc1c(=O)cc2cc[nH]c3ccn(C)c1c23", "fulfilled"],
  ["COC1C(O)C(CO)OC(OC2C(O)COC(OC3C(C)OC(OC4C(O[C@H]5CC[C@@]6(C)C(CC=C7[C@H]6CCC68C(=O)O[C@@](C)(CCCC(C)C)[C@H]6[C@@H](OC(C)=O)C[C@@]78C)C5(C)C)OCC(OS(=O)(=O)O)C4O)C(OC4OCC(O)C(O)C4O)C3O)C2O)C1O (some centres not stated)", "not fulfilled"],
  ["CCN(CC)c1ccc2c(c1)Oc1ccc(N(CC)CC)cc1C21Oc2ccccc2-c2c1c1ccccc1n2CC (configuration not stated)", "fulfilled"],
  ["COC(=O)/C=C(\\CC(=O)OC)n1nnnc1[C@@H]1C[C@H](COC(c2ccccc2)(c2ccccc2)c2ccccc2)[C@H]2OC(C)(C)O[C@H]21", "fulfilled"],
  ["COc1ccc(/C=C2\\CCC(C)(CN(C)C)C2=O)cc1OC (configuration not stated)", "fulfilled"],
  ["Nc1nc(Nc2ccccc2)c2[nH]cnc2n1", "fulfilled"],
  ["CCCCCCCCCCCCC(Br)C(=O)NCC(N)=O (configuration not stated)", "fulfilled"],
  ["COC1C(N)C(OC2C(Oc3cccc4c(O)c5c(=O)oc6ccc(C)c7c(=O)oc(c34)c5c67)OC(C)C(O)C2(C)O)OC(C)C1O (configuration not stated)", "not fulfilled"],
  ["COC(=O)c1ccc(S)c(S(=O)(=O)Nc2n[nH]c(N)n2)c1", "fulfilled"],
  ["N#Cc1ccc(C=NC23CC4CC(CC(C4)C2)C3)cc1", "fulfilled"],
  ["C=CCN1CC(=O)N2[C@@H](Cc3ccc(O)cc3F)C(=O)N(Cc3cccc(N4CC(N5CCN(CC)CC5)C4)n3)C[C@@H]2N1C(=O)NCc1ccccc1", "not fulfilled"],
  ["CCC1(O)C(=O)OCc2c1cc1n(c2=O)Cc2cc3c(NC(=O)CN)cccc3nc2-1 (configuration not stated)", "fulfilled"],
  ["C=C1CC(c2ccc(OCCCN3C(=O)c4ccccc4C3=O)cc2)OC1=O (configuration not stated)", "not fulfilled"],
  ["C[C@]12CC[C@@H]3c4cc(OC(F)F)c(OS(N)(=O)=O)cc4CC[C@H]3[C@@H]1CC[C@@H]2O", "not fulfilled"],
  ["CCCCCCCC1(N=[N+]=[N-])C(=O)Nc2ccccc2C1=O (configuration not stated)", "fulfilled"],
  ["Cc1ccc(NC(=O)c2cc(S(=O)(=O)Nc3n[nH]c(=O)[nH]3)c(SSc3cc(Cl)c(C(=O)Nc4ccc(C)cc4)cc3S(=O)(=O)Nc3n[nH]c(=O)[nH]3)cc2Cl)cc1", "fulfilled"],
  ["O=C(c1nc2ccccc2[nH]c1=O)C(O)c1ccccc1 (configuration not stated)", "fulfilled"]
]}
